Molecular target: T1, AND-1 (329–826), SepB domain (human, UniProt O75717 329-826)
T1 construct: human AND-1, residues 329-826 (SepB domain); residues 329-420 and 824-826 not in the final crystallographic model; Trimer arises from crystallographic symmetry (one protomer per asymmetric unit); also called AND-1 SepB
T1 sequence (looked up): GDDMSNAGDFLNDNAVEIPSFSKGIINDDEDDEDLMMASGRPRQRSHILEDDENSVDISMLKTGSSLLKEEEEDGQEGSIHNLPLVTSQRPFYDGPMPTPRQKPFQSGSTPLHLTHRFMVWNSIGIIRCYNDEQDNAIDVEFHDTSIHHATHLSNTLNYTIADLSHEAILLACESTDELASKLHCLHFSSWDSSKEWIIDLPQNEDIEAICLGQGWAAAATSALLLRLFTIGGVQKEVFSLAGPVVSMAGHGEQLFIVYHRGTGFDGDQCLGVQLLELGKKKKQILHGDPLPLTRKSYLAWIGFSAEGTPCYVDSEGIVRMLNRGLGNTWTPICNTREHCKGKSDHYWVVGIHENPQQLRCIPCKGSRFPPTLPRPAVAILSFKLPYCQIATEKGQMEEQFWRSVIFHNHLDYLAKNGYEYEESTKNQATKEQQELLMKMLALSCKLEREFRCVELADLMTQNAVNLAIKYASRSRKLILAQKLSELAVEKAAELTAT
Assay: fluorescence polarisation; 30 nM fluorescein-labelled Pol α CIP peptide, AND-1 SepB titrated; 25 mM HEPES pH 7.2, 140 mM NaCl, 5 mM DTT, 5 mM MgCl2, 5% glycerol; 25°C; 96-well plate
Conditions: both partners purified
No end group written: not given here.
quantity.kind: pKd
The quantity pKd is defined as the negative base-10 logarithm of the molar concentration.

[Q] For DLSKDGLLGDILQDLNTETP (also: fluorescein label, position not given here, source: synthetic peptide (Genosphere Biotechnologies)) [Fluorescein-labelled Pol α CIP peptide (152–171)] , what is its reported pKd?
[A] 4.41
